Kindly state pH 6.0/7.4 KD for each of the entries shown.
- Assay system: T1, monovalent hVISTA-ECD (human VISTA extracellular domain with His tail) (human, UniProt Q9H7M9 33-193)
- T1 construct: analyte flowed over captured antibody; also called huVISTA-His
- T1 sequence (Q9H7M9 other isoform, or with tags, fused parts or gaps limits assumed): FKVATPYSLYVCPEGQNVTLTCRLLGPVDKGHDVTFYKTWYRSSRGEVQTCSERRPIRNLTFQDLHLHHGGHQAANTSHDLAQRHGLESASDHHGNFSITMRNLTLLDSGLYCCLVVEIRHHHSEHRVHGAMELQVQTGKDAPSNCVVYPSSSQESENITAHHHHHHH
- Experimental details: SPR
Respond using a number only.

Request: // lookup pH 6.0/7.4 KD for P1-065333 (41F11_VH_T28P/Y50W/S55E/L96E/Y100E VK_A64G) (antibody, human IgG1, kappa, V domains shown, IgG1.3; also called P1-065333-1; VISTA.4 pH-independent progeny) VH: QVQLVESGGGLVKPGGSLRLSCAASGFPFSDYYMSWIRQAPGKGLEWVSWISNSGEPIYYADSVKGRFTISRDNAKNSLYLQMNSLRAEDTAVYYCARDEPGWEFDLWGRGTLVTVSS VL: EIVLTQSPATLSLSPGERATLSCRASQSVSSYLAWYQQKPGQAPRLLIYDASNRATGIPARFSGSGSGTDFTLTISSLEPEDFAVYYCQQRNNWPRTFGQGTKVEIKR
Response: 0.2

Request: I'd like to know its pH 6.0/7.4 KD. The binder in question is P1-064392 (41F11_HC_Mutant: D31E/Y50W/S55E/Y100E 41F11_LC_Mutant: V29D/A64G/Q89E/R91T) (antibody, V domains shown, Kabat positions; also called P1-064392-1) VH: QVQLVESGGGLVKPGGSLRLSCAASGFTFSEYYMSWIRQAPGKGLEWVSWISNSGEPIYYADSVKGRFTISRDNAKNSLYLQMNSLRAEDTAVYYCARDLPGWEFDLWGRGTLVTVSS VL: EIVLTQSPATLSLSPGERATLSCRASQSDSSYLAWYQQKPGQAPRLLIYDASNRATGIPARFSGSGSGTDFTLTISSLEPEDFAVYYCEQTNNWPRTFGQGTKVEIK
Response: 0.1

Request: Consider the binder P1-064510 (41F11_Vk_A25E/V29D/A64G/R91T) (antibody, V domains shown, also called P1-064510-1) VH: QVQLVESGGGLVKPGGSLRLSCAASGFTFSDYYMSWIRQAPGKGLEWVSYISNSGSPIYYADSVKGRFTISRDNAKNSLYLQMNSLRAEDTAVYYCARDLPGWYFDLWGRGTLVTVSS VL: EIVLTQSPATLSLSPGERATLSCRESQSDSSYLAWYQQKPGQAPRLLIYDASNRATGIPARFSGSGSGTDFTLTISSLEPEDFAVYYCQQTNNWPRTFGQGTKVEIK and give its measured pH 6.0/7.4 KD.
Response: 0.6
